Molecular target: UniProtKB Q9Y5Y4
Assay: Radioligand binding Scintillation Proximity Assay ([3H]PGD2, hCRTH2-CHO cell membranes)
Parameters: host or cells: CHO cells
Conditions: 1.5 nM [3H]PGD2, hCRTH2-CHO membranes, SPA; read-out: IC50 binding
pIC50: −log10 of the molar value.
# reported pIC50; entries follow
recordedEndpoint: pIC50

# molecule, obsValue
measured = [
    ("COc1c(C)cnc(CN2C(=O)N(C)C3(C2=O)C(=O)N(CC(=O)O)c2ccc(Cl)cc23)c1C (stereo not drawn)", 6.44),
    ("CN1C(=O)N(CCc2cccc(F)c2)C(=O)C12C(=O)N(CC(=O)O)c1ccc(Cl)cc12 (stereo not drawn)", 6.04),
    ("CN1C(=O)N(Cc2csc(-c3ccccc3)n2)C(=O)C12C(=O)N(CC(=O)O)c1ccc(Cl)cc12 (stereo not drawn)", 7.36),
    ("CN1C(=O)N(Cc2cc(Cl)ccc2F)C(=O)C12C(=O)N(CC(=O)O)c1ccc(Cl)cc12 (stereo not drawn) [Example 1]", 7.21),
    ("CN1C(=O)N(Cc2cn(-c3ccccc3)nc2-c2ccccc2)C(=O)C12C(=O)N(CC(=O)O)c1ccc(Cl)cc12 (stereo not drawn)", 6.91),
    ("Cc1onc(-c2ccccc2)c1CN1C(=O)N(C)C2(C1=O)C(=O)N(CC(=O)O)c1ccc(Cl)cc12 (stereo not drawn)", 6.83),
    ("CN1C(=O)N(CCc2ccccc2F)C(=O)C12C(=O)N(CC(=O)O)c1ccc(Cl)cc12 (stereo not drawn)", 6.03),
    ("CN1C(=O)N(CCc2ccccc2Cl)C(=O)C12C(=O)N(CC(=O)O)c1ccc(Cl)cc12 (stereo not drawn)", 6.13),
    ("CN1C(=O)N(Cc2nc3ccccc3s2)C(=O)C12C(=O)N(CC(=O)O)c1ccc(Cl)cc12 (stereo not drawn)", 6.02),
    ("CC(C)c1nc(CN2C(=O)N(C)C3(C2=O)C(=O)N(CC(=O)O)c2ccc(Cl)cc23)cs1 (stereo not drawn)", 6.20),
    ("CN1C(=O)N(Cc2cc(F)ccc2F)C(=O)C12C(=O)N(CC(=O)O)c1ccc(Cl)cc12 (stereo not drawn)", 6.30),
    ("CN1C(=O)N(CCc2cccc(Cl)c2)C(=O)C12C(=O)N(CC(=O)O)c1ccc(Cl)cc12 (stereo not drawn)", 6.26),
    ("CCN1C(=O)N(Cc2cc(Cl)ccc2F)C(=O)C12C(=O)N(CC(=O)O)c1ccc(Cl)cc12 (single isomer, unassigned; (+))", 6.47),
    ("CCCN1C(=O)N(Cc2cc(Cl)ccc2F)C(=O)C12C(=O)N(CC(=O)O)c1ccc(Cl)cc12 (single isomer, unassigned)", 6.84),
    ("CN1C(=O)N(Cc2cc(Cl)ccc2F)C(=O)C12C(=O)N(CC(=O)O)c1ccc(Cl)cc12 (single isomer, unassigned; (+)) [Example 2]", 7.35),
]

====

Molecular target: CRTH2 (Homo sapiens)
Sequence (Q9Y5Y4 whole entry): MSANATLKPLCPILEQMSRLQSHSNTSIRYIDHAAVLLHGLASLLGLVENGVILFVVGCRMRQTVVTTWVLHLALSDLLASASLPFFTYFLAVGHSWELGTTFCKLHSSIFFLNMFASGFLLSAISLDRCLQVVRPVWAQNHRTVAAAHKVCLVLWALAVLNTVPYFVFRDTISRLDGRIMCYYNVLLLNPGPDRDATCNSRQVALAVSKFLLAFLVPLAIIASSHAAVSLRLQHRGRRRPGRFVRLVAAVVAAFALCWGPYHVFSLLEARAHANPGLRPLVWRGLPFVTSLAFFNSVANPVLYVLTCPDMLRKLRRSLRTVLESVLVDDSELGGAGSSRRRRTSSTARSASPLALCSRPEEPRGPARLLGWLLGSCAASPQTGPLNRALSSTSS
Assay: Radioligand binding Scintillation Proximity Assay ([3H]PGD2, hCRTH2-CHO cell membranes)
Design: host or cells: CHO cells
Conditions: comparison table with (+)-Enantiomer; read-out: Binding IC50

# molecule, unitText, IC50
records = [
    ("CN1C(=O)N(Cc2cc(Cl)ccc2F)C(=O)C12C(=O)N(CC(=O)O)c1ccc(Cl)cc12 (single isomer, unassigned; (+))", "nM", 68),
    ("O=C(O)CN1C(=O)C2(NC(=O)N(Cc3cc(Cl)ccc3F)C2=O)c2cc(Cl)ccc21 (single isomer, unassigned; (+)) [(+)-Enantiomer, reference compound]", "nM", 21),
]
